- tgt: human GcgR (Homo sapiens)
- Sequence (P47871 26-477): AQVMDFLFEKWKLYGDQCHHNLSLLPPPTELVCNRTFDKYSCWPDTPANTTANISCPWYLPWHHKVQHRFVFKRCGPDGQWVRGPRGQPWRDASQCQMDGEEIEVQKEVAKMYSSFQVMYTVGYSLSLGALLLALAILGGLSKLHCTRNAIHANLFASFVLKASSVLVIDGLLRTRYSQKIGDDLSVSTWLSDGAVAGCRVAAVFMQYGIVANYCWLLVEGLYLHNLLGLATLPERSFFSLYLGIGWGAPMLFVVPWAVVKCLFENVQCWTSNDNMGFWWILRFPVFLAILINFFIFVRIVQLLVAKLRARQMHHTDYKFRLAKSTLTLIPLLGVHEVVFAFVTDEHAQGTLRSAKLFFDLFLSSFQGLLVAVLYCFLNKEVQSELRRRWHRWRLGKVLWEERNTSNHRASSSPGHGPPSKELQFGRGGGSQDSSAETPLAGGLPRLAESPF
- measurement.description: Functional cAMP activity in the presence of 1% HSA
- Type: cell-based
- measurement.context: read-out: cAMP Rel EC50, hGcgR
Starred links: 1 amine or outer side, 2 acyl side, 3 side chain; linkers in the order of their positions; H or OH if unused. Non-standard residues stand in square brackets, D forms with d. Groups on a side chain read outwards from the residue. No end group written: not given here. *: point of attachment. C18 diacid = O=C(O)CCCCCCCCCCCCCCCCC(=O)*; αMePhe(2-F) = C[C@](N)(Cc1ccccc1F)C(=O)O; γGlu = O=C(O)[C@H](CCC(=O)[*:2])N[*:1]; αMe4Pal = C[C@](N)(Cc1ccncc1)C(=O)O; αMeY = C[C@](N)(Cc1ccc(O)cc1)C(=O)O; 4Pal = N[C@@H](Cc1ccncc1)C(=O)O; αMeL = CC(C)C[C@](C)(N)C(=O)O; αMeS = C[C@](N)(CO)C(=O)O; Orn = NCCC[C@H](N)C(=O)O; AEEA = NCCOCCOCC(=O)O; Aib = CC(C)(N)C(=O)O
Decide using EC50 alone. Strictly below 600 nM: MET. Equal to or above 600 nM: NOT MET.

Completed entries (count: 2):
H-Y[Aib]QGT[αMePhe(2-F)]TSD[4Pal]SILLDKK([γGlu-γGlu-C18 diacid])AQ[Aib]AFIEWLEEGGPSSGAPPPSGTE-NH2 [Example 549]; NOT MET
Y[Aib]QGT[αMePhe(2-F)]TSD[4Pal][αMeS]I[αMeL]LD[Orn]K([AEEA-γGlu-C18 diacid])AQ[αMe4Pal]EFI[dE][αMeY]LVEGGPSSGAPPPSGGGE-NH2 [Example 769]; MET

Consider now this further substance.
Would you kindly verify if EC50 of H-Y[Aib]QGTFTSD[4Pal]SQ[αMeL]LDKK([γGlu-γGlu-C18 diacid])AQ[αMe4Pal]AFIEYLIE[Aib]GPSSGAPPPSGSE-NH2 [Example 890] is strictly less than 600 nM?
MET

----------
- tgt: hGLP-1R (Homo sapiens, UniProt P43220)
- Sequence (P43220 24-463): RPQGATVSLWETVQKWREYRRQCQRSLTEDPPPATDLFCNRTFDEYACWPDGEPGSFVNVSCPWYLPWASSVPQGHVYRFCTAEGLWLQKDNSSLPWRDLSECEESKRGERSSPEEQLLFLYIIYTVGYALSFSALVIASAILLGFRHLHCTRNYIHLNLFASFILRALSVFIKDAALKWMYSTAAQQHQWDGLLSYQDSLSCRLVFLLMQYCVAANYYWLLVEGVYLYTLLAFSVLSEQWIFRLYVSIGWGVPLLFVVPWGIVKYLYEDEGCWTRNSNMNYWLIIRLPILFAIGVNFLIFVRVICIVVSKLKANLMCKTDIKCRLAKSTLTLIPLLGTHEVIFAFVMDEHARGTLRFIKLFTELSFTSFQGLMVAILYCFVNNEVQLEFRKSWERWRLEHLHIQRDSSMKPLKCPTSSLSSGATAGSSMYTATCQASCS
- measurement.description: Functional cAMP activity in the presence of 1% HSA
- Format: cell-based
- measurement.context: read-out: cAMP Rel EC50, hGLP-1R
Starred links: 1 amine or outer side, 2 acyl side, 3 side chain; linkers in the order of their positions; H or OH if unused. Non-standard residues stand in square brackets, D forms with d. Groups on a side chain read outwards from the residue. *: point of attachment. C20 diacid = O=C(O)CCCCCCCCCCCCCCCCCCC(=O)*; γGlu = O=C(O)[C@H](CCC(=O)[*:2])N[*:1]; NMeY = CN[C@@H](Cc1ccc(O)cc1)C(=O)O; αMeF = C[C@](N)(Cc1ccccc1)C(=O)O; AEEA = NCCOCCOCC(=O)O; Aib = CC(C)(N)C(=O)O
Exam item: assign y to entries whose EC50 is below 70 nM and n to entries at or above 70 nM. Note that a value of exactly 70 nM receives n.

Consider the substance H-[NMeY][Aib]QGT[αMeF]TSDYSILLDKIAAK([AEEA-AEEA-γGlu-C20 diacid])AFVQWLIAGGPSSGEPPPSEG-NH2 [Example 300] . Is its EC50 strictly less than 70 nM?
n
